# Test system: HHV-6B
# assayText: organism not typed
# Type: cell-based
# conditionDetails: MOLT-3 cells
reportedMetric: EC50 (µM)
Kindly provide the numeric value in µM only, without the unit symbol.

Provide EC50 value for the following molecule: Cc1nc(N)c2c(C(N)=O)cn([C@@H]3O[C@H](CO)[C@@H](O)[C@H]3O)c2n1
39.7

====

# Test system: Vero76
# conditionDetails: Vero76 cells, parallel to POV-3 assay
reportedMetric: CC50

Provide CC50 value for the following compound: Cc1nc(N)c2c(C(N)=O)cn([C@@H]3O[C@H](CO)[C@@H](O)[C@H]3O)c2n1
> 100 µM

====

# assayText: Parallel cytotoxicity assay in 293TT cells
# Format: cell-based
# conditionDetails: human, parallel to JCV assay
reportedMetric: CC50

Provide CC50 value for the following molecule: Cc1nc(N)c2c(C(N)=O)cn([C@@H]3O[C@H](CO)[C@@H](O)[C@H]3O)c2n1
> 60 µM

Source listed as patent US9708359B2.
